List of pIC50 values.
# Test system: A549
# assayExplanation: Cytotoxicity against apoptotic-resistant human A549 cells assessed as growth inhibition after 72 hrs by MTT-based colorimetric assay
# Assay type: functional, cell-based
# experimentalConditions: Homo sapiens, A549, 72 h
pIC50: −log10 of the molar value.
metricName: pIC50

[[record]]
moleculesmiles = "C=CCCCCOc1ncc(-c2ccccc2OC)n1C"
metricname = "pIC50"
inequalityoperator = "="
numericreadout = 5.30

[[record]]
moleculesmiles = "C=CCCCCOc1cc(F)ccc1-c1cnc(OCCC=C)n1C"
metricname = "pIC50"
inequalityoperator = "="
numericreadout = 4.13

[[record]]
moleculesmiles = "C=CCCCCOc1ccccc1-c1cnc(NC(=O)CCCC=C)n1C"
metricname = "pIC50"
inequalityoperator = "="
numericreadout = 5.10

[[record]]
moleculesmiles = "Cn1c2cnc1OCCCCCCCCCCOc1cc3ccccc3cc1-2"
metricname = "pIC50"
inequalityoperator = "="
numericreadout = 4.70

[[record]]
moleculesmiles = "C=CCCCCCOc1ncc(-c2ccccc2OCCCCC=C)n1C"
metricname = "pIC50"
inequalityoperator = "="
numericreadout = 4.21

[[record]]
moleculesmiles = "COc1ccccc1-c1cnc(OCCCc2ccccc2)n1C"
metricname = "pIC50"
inequalityoperator = "="
numericreadout = 5.52

[[record]]
moleculesmiles = "Cn1c(-c2ccccc2O)cnc1S(=O)(=O)c1ccccc1"
metricname = "pIC50"
inequalityoperator = "<"
numericreadout = 4.00

[[record]]
moleculesmiles = "C=CCCCCOc1ncc(-c2cc(F)c(F)cc2OC)n1C"
metricname = "pIC50"
inequalityoperator = "="
numericreadout = 4.37

[[record]]
moleculesmiles = "C=CCCCCOc1ncc(-c2cccc(OC)c2OC)n1C"
metricname = "pIC50"
inequalityoperator = "="
numericreadout = 4.37

[[record]]
moleculesmiles = "C=CCCCCOc1ncc(-c2cc(Cl)ccc2OC)n1C"
metricname = "pIC50"
inequalityoperator = "="
numericreadout = 4.47

[[record]]
moleculesmiles = "C=CCCCCOc1ccccc1-c1cnc(OCCCCC=C)n1C"
metricname = "pIC50"
inequalityoperator = "="
numericreadout = 5.15

[[record]]
moleculesmiles = "C#CCCCCOc1ncc(-c2ccccc2OC)n1C"
metricname = "pIC50"
inequalityoperator = "="
numericreadout = 4.66


Hello, the source for this data is ChEMBL document CHEMBL3091366, in case you need it.
